Task for the reader: assign each of the following sequences its reported melting temperature.
test system: HeLa Kyoto; assay: melting temperature (median over replicates), in situ; higher = more thermally stable; conditions: cell cycle stage: G1/S;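 note: HeLa Kyoto cells synchronized by double thymidine or nocodazole block, proteins quantified by TMT10plex mass spectrometry, three independent biological replicates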
Provide only the numeric value, understood in °C.

Asked: State the recorded melting temperature for this entry: MSALEWYAHKSLGDGIFWIQERFYESGNRANIWLVRGSEQDVVIDTGLGLRSLPEYLYSSGLLQDREAKEDAARRPLLAVATHVHFDHSGGLYQFDRVAVHHAEAEALARGDNFETVTWLSDSEVVRTPSPGWRARQFRVQAVQPTLILQDGDVINLGDRQLTVMHMPGHSRGSICLHDKDRKILFSGDVVYDGSLIDWLPYSRISDYVGTCERLIELVDRGLVEKVLPGHFNTFGAERLFRLASNYISKAGICHKVSTFAMRSLASLALRVTNSRTSP [MBLAC2]
Given back: 55.4

Asked: I'd like to know its melting temperature. The sequence in question is MLRLVPTGARAIVDMSYARHFLDFQGSAIPQAMQKLVVTRLSPNFREAVTLSRDCPVPLPGDGDLLVRNRFVGVNASDINYSAGRYDPSVKPPFDIGFEGIGEVVALGLSASARYTVGQAVAYMAPGSFAEYTVVPASIATPVPSVKPEYLTLLVSGTTAYISLKELGGLSEGKKVLVTAAAGGTGQFAMQLSKKAKCHVIGTCSSDEKSAFLKSLGCDRPINYKTEPVGTVLKQEYPEGVDVVYESVGGAMFDLAVDALATKGRLIVIGFISGYQTPTGLSPVKAGTLPAKLLKKSASVQGFFLNHYLSKYQAAMSHLLEMCVSGDLVCEVDLGDLSPEGRFTGLESIFRAVNYMYMGKNTGKIVVELPHSVNSKL [ZADH2]
Given back: 52.9

Asked: Request the reported melting temperature associated with MSGSMATAEASGSDGKGQEVETSVTYYRLEEVAKRNSLKELWLVIHGRVYDVTRFLNEHPGGEEVLLEQAGVDASESFEDVGHSSDAREMLKQYYIGDIHPSDLKPESGSKDPSKNDTCKSCWAYWILPIIGAVLLGFLYRYYTSESKSS [CYB5B]
Given back: 57.2

Asked: What measured melting temperature goes with MGDKIWLPFPVLLLAALPPVLLPGAAGFTPSLDSDFTFTLPAGQKECFYQPMPLKASLEIEYQVLDGAGLDIDFHLASPEGKTLVFEQRKSDGVHTVETEVGDYMFCFDNTFSTISEKVIFFELILDNMGEQAQEQEDWKKYITGTDILDMKLEDILESINSIKSRLSKSGHIQTLLRAFEARDRNIQESNFDRVNFWSMVNLVVMVVVSAIQVYMLKSLFEDKRKSRT [TMED5] ?
Given back: 54.2

Asked: // lookup melting temperature for MAADISESSGADCKGDPRNSAKLDADYPLRVLYCGVCSLPTEYCEYMPDVAKCRQWLEKNFPNEFAKLTVENSPKQEAGISEGQGTAGEEEEKKKQKRGGRGQIKQKKKTVPQKVTIAKIPRAKKKYVTRVCGLATFEIDLKEAQRFFAQKFSCGASVTGEDEIIIQGDFTDDIIDVIQEKWPEVDDDSIEDLGEVKK [DENR]
Given back: 56.9

Asked: Suppose we examine the sequence MPDENIFLFVPNLIGYARIVFAIISFYFMPCCPLTASSFYLLSGLLDAFDGHAARALNQGTRFGAMLDMLTDRCSTMCLLVNLALLYPGATLFFQISMSLDVASHWLHLHSSVVRGSESHKMIDLSGNPVLRIYYTSRPALFTLCAGNELFYCLLYLFHFSEGPLVGSVGLFRMGLWVTAPIALLKSLISVIHLITAARNMAALDAADRAKKK [CDIPT] ; what melting temperature value has been reported?
Given back: 54.7
